Biological target: delta opioid receptor (Rattus norvegicus)
Assay: Rat brain delta opioid receptor binding assay ([3H]DPDPE)
Conditions: DOR Ki, Rat delta opioid receptor binding constant; rat forebrain membranes, ~4 nM [3H]DPDPE
PROPERTY LABEL: Ki (µM)

• O=C(NC(CO)Cc1ccccc1)c1ccc2c(c1)Oc1ccccc1C2=C1CC2CCC(C1)N2 (single isomer, unassigned) [Cpd 15] = 0.0275
• O=C(NCCc1ccccc1)c1ccc2c(c1)Oc1ccccc1C2=C1CC2CCC(C1)N2 [Cpd 19] = 0.045
• CN(C(=O)c1ccc2c(c1)Oc1ccccc1C2=C1CC2CCC(C1)N2)C1CCCCC1 [Cpd 22] = 0.0549
• Cc1cccc(C)c1OCC(C)NC(=O)c1ccc2c(c1)Oc1ccccc1C2=C1CC2CCC(C1)N2 (centres unmarked) [Cpd 13] = 0.0236
• CN(CCc1ccccc1)C(=O)c1ccc2c(c1)Oc1ccccc1C2=C1CC2CCC(C1)N2 [Cpd 17] = 0.037
• CS(=O)(=O)Nc1cccc(-c2ccc3c(c2)Oc2ccccc2C3=C2CC3CCC(C2)N3)c1 [Cpd 63] = 0.161
• c1ccc2c(c1)Oc1cc(-c3ccncc3)ccc1C2=C1CC2CCC(C1)N2 [Cpd 29] = 0.133
• c1ccc2c(c1)Oc1cc(-c3nnn[nH]3)ccc1C2=C1CC2CCC(C1)N2 [Cpd 1] = 0.00199

----------
Reported Ki is given for each of the following molecules.
Molecular target: delta opioid receptor (Rattus norvegicus, UniProt P33533)
Sequence (P33533 whole entry): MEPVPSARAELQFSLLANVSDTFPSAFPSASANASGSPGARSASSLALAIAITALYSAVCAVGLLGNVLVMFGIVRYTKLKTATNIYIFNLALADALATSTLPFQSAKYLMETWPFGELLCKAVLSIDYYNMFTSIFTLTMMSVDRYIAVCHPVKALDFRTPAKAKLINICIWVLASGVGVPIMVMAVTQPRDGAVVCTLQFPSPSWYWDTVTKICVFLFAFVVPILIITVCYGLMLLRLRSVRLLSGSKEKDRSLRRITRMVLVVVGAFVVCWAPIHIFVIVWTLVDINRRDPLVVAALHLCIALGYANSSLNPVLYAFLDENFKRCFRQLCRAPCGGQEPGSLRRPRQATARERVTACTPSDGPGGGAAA
Test: Rat brain delta opioid receptor binding assay ([3H]DPDPE)
Conditions: DOR Ki, Rat delta opioid receptor binding constant; rat forebrain membranes, ~4 nM [3H]DPDPE
PROPERTY LABEL: Ki (µM)

• N=C(c1ccc2c(c1)Oc1ccccc1C2=C1CC2CCC(C1)N2)N1CCCCC1 [Cpd 43] = 0.496
• CCN(CC)C(=N)c1ccc2c(c1)Oc1ccccc1C2=C1CC2CCC(C1)N2 [Cpd 9] = 0.014
• Cn1nnnc1-c1ccc2c(c1)Oc1ccccc1C2=C1CC2CCC(C1)N2 [Cpd 21] = 0.054
• COc1ccccc1-c1ccc2c(c1)Oc1ccccc1C2=C1CC2CCC(C1)N2 [Cpd 44] = 0.659
• CN1C2CCC1CC(=C1c3ccccc3Sc3cc(-c4cccnc4)ccc31)C2 [Cpd 114] = 0.108
• CN(C(=O)c1ccc2c(c1)Oc1ccccc1C2=C1CC2CCC(C1)N2)c1ccc(F)cc1 [Cpd 66] = 0.093
• COCCN(C)C(=O)c1ccc2c(c1)Oc1ccccc1C2=C1CC2CCC(C1)N2 [Cpd 7] = 0.00763
• CC(=O)Nc1ccccc1-c1ccc2c(c1)Sc1ccccc1C2=C1CC2CCC(C1)N2Cc1ccccn1 [Cpd 121] = 0.0037
• Oc1cccc(-c2ccc3c(c2)Oc2ccccc2C3=C2CC3CCC(C2)N3)c1 [Cpd 38] = 0.418

----------
Target: hMOR (CHO-hMOR cell membranes) (Homo sapiens)
Construct: host or cells: CHO cells expressing hMOR (purchased membranes)
Sequence (P35372 whole entry): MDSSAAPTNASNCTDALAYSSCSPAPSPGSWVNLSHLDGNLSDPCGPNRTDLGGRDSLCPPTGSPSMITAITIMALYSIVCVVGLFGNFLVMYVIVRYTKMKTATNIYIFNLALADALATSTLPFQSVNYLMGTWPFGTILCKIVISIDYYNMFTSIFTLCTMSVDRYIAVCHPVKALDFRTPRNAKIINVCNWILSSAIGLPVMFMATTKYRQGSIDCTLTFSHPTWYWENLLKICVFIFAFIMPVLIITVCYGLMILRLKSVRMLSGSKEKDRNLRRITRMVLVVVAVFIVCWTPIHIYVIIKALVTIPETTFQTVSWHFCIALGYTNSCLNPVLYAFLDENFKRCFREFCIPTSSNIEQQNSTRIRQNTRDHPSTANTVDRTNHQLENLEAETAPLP
Experiment: [35S]GTPγS binding assay in CHO-hMOR cell membranes
Assay type: biochemical
pEC50: −log10 of the molar value.
Reported pEC50 is given for each of the following compounds.
PROPERTY LABEL: pEC50

- c1cncc(-c2ccc3c(c2)Oc2ccccc2C3=C2CC3CCC(C2)N3)c1 [Cpd 12]: 9.33
- Cn1nnc(-c2ccc3c(c2)Oc2ccccc2C3=C2CC3CCC(C2)N3)n1 [Cpd 16]: 9.32
